biological target: Cytochrome P450 2C19 (Homo sapiens, UniProt P33261)
Sequence (P33261 whole entry): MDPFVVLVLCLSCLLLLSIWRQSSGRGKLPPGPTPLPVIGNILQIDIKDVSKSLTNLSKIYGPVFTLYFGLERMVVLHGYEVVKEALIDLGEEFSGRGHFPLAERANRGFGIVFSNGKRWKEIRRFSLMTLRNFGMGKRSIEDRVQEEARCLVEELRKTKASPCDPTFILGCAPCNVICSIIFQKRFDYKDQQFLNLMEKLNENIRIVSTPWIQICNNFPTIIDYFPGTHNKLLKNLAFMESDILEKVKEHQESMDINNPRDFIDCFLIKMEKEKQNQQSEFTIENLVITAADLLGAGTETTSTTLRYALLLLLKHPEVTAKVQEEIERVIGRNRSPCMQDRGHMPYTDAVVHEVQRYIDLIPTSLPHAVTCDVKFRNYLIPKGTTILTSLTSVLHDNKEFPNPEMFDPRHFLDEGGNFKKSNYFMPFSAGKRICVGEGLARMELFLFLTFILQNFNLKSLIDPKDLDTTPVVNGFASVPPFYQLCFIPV

>  <Substance Smiles>
Cc1ccccc1/C(=C\CCN1CCC[C@@H](C(=O)O)C1)c1ccccc1F

>  <IC50>
> 10 µM

$$$$

---

target: Sodium- and chloride-dependent GABA transporter 1 (Homo sapiens, UniProt P30531); experiment: Displacement of [3H]Tiagabine from human recombinant GAT1 expressed in HEK293 cells by equilibrium binding assay
Sequence (P30531 whole entry): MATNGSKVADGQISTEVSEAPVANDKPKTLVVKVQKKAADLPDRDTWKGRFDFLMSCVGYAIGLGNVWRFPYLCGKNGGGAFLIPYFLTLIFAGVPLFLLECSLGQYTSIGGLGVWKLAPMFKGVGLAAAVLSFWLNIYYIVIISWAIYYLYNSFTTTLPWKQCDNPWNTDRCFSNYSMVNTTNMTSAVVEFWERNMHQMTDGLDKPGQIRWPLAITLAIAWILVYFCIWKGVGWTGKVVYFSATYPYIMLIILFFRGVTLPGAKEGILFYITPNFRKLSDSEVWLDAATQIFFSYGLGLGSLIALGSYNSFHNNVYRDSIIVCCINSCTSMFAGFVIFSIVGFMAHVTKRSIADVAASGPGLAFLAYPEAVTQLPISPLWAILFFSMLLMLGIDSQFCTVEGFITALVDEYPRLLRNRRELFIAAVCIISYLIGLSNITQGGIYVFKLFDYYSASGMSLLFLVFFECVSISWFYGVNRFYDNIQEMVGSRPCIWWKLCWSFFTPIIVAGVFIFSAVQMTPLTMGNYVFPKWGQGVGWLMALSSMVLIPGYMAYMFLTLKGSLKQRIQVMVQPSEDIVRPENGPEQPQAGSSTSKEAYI
pKi: −log10 of the molar value.
Measurement Label: pKi

>  <Substance Smiles>
O=C(O)[C@@H]1CCCN(CC/C=C(\c2ccccc2)c2ccccc2F)C1

>  <Readout Relation>
=

>  <Observed Value>
6.43

$$$$
>  <Substance Smiles>
Cc1cc(F)ccc1/C(=C/CCN1CCC[C@@H](C(=O)O)C1)c1ccccc1

>  <Readout Relation>
=

>  <Observed Value>
6.42

$$$$
>  <Substance Smiles>
O=C(O)[C@@H]1CCCN(CC/C=C(\c2ccccc2)c2ccccc2Br)C1

>  <Readout Relation>
=

>  <Observed Value>
6.70

$$$$
>  <Substance Smiles>
O=C(O)[C@@H]1CCCN(CC/C=C(/c2ccccc2)c2ccccc2Cl)C1

>  <Readout Relation>
=

>  <Observed Value>
7.39

$$$$
>  <Substance Smiles>
Cc1ccc(C(=CCCN2C[C@@H]3[C@H](C2)[C@H]3C(=O)O)c2ccc(C)s2)s1

>  <Readout Relation>
<

>  <Observed Value>
5.00

$$$$
